Value source: patent EP1388586A2

Kindly state IC50 for each of the entries shown.
assayed-target: DRB1*0401 (DR4w4) (Homo sapiens, UniProt P01903+P01911, A100K/A169T/F76Y/I96L/K127E/L162R/M171V/N62H/P40V/Q125Y/R42H/S133A/S149N/S66Y/V115G/V209L/W38E)
Construct: used as sources of human HLA class II molecules; endogenous in cells; host or cells: PREISS (EBV-transformed homozygous B cell line)
method: Class II peptide-binding assay, DR4w4;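 also: unlabeled test peptides compete with a radiolabeled probe peptide for binding to affinity-purified HLA-DR, with DR amount titrated to capture a small fraction of label, IC50 approximating Kd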
measurement-parameters: purified HLA DR4w4; read-out: DR4w4 nM (In IC50 Format)
Ends that are not written are not given here.
Numbers only, in nM.

- biopolymer-sequence: "LMQYIKANSKFIGITE [Peptide 812.03]"
  IC50, nM: 150

Now consider a different sequence.
// field: IC50; key: MQYIKANSKFIGITE [Peptide 812.05] ; value = 229
